Reference source for all entries: the supplement of paper PMC9694430

test system: LOC_OS05G16824-cb004; experiment: thermal shift delta Tm vs DMSO control; higher = stronger stabilization (binding); settings: 12.5 µM; protein concentration 2 µM;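 note: purified Escherichia coli-expressed rice kinase domain construct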
Counter-ions that a name gives are not always drawn.
// thresholds for thermal shift delta Tm classes: low value (below -0.7 °C), medium value (-0.7 °C to below 4 °C), high value (4 °C or more)

compound | qualitativeLabel
C=CCc1ccc(O)c(-c2ccc(O)c(CC=C)c2)c1 | medium value
Oc1cc(CNC(=S)/C=C/c2cc(O)c(O)c(Br)c2)cc(O)c1O | low value
CC#CC(=O)N1CC[C@@H](n2c(=O)n(-c3ccc(Oc4ccccc4)cc3)c3c(N)ncnc32)C1 [ONO-4059 (GS-4059) hydrochloride] | low value
CC(=O)O/N=C1/C(c2c(O)[nH]c3cc(Br)ccc23)=Nc2ccccc21 | high value
O=C(O)c1ccc2c3c1cccc3c(=O)n1c3ccccc3nc21 | medium value
O=C(O)c1ccc(-c2c[nH]c3ncc(-c4ccccc4)cc23)cc1C1CCCC1 | high value
COc1ccc(CNC(=O)Nc2ncc([N+](=O)[O-])s2)cc1 | medium value
O=C(NCc1ccccc1)c1csc(Nc2ccncn2)n1 | low value
CN(C)Cc1cccc(N=C(c2ccccc2)c2c(O)[nH]c3cc(C(=O)N(C)C)ccc23)c1 | medium value
